system: UO-31 renal; test: NCI tumour cell line growth inhibition, 48 h

smiles.string | TGI
Cn1c(=O)n(C)c2cc(CNCCNc3ccnc4cc(Cl)ccc34)ccc21 | > 100 µM
Cc1ccc2nc3n[nH]c(N)c3nc2c1 | > 100 µM
O=c1[nH]nc(Cc2ccccc2)n1/N=C/c1ccco1 | > 100 µM

* * *

tested on: HT29 colon; assay: NCI tumour cell line growth inhibition, 48 h
TGI values, listed per item

compound | assay.system | TGI
Cn1c(=Nc2ccc(Cl)cc2)sc2ccccc21 | HT29 colon | > 100 µM
Nc1c(C(=O)c2cccc(C#CCN3CCCCC3)c2)cnn1-c1ccc(F)cc1 | HT29 colon | > 25 µM
Oc1[nH]c2ccccc2c1C1=Nc2ccccc2/C1=N\OCCOC1OCC(O)C(O)C1O (stereo unspecified) | HT29 colon | > 100 µM
CN(C)c1ccc(/C=C(\NC(=O)c2ccccc2)c2nc3ccc4c(c3[nH]2)C(=O)c2ccccc2C4=O)cc1 | HT29 colon | > 100 µM
NC(=O)CSc1c2cc(O)ccc2nc2ccc(O)cc12 | HT29 colon | > 10 µM
C/C(=N\NC(=O)c1ccc(Cl)cc1)c1nc2ncccc2[nH]1 | HT29 colon | > 100 µM
CC(=O)c1ccc(NC(=O)C(=O)C(C(=O)/C=C/c2ccccc2)C2OC(=O)c3ccccc32)cc1 (stereo unspecified) | HT29 colon | > 100 µM
CO/N=C\c1ccc2c(c1)Sc1ccccc1O2 | HT29 colon | > 100 µM
O=c1[nH]nc(-c2ccccc2)n1/N=C/c1cccc([N+](=O)[O-])c1 | HT29 colon | > 100 µM
COC/N=C(\NC#N)NCOC | HT29 colon | > 100 µM
Cc1ccc(S(=O)(=O)CNC(=O)C(O)(O)C(F)(F)F)cc1 | HT29 colon | > 100 µM

* * *

tested on: UACC-257 melanoma; test: NCI tumour cell line growth inhibition, 48 h
observation.type: TGI

smiles.string | observation.type | observed.measurement
CN(C)c1ccc(/C=C(\NC(=O)c2ccccc2)c2nc3ccc4c(c3[nH]2)C(=O)c2ccccc2C4=O)cc1 | TGI | > 100 µM
N=c1c2ccccc2sc2nc3ccccc3n12 | TGI | > 100 µM
O=C1/C(=C\c2ccco2)Oc2ccccc21 | TGI | > 100 µM

* * *

tested on: HOP-92 NSCLC; experiment: NCI tumour cell line growth inhibition, 48 h; in the data active = GI50 below about 0.43 µM; inactive = the rest
Outcome codes: T for active, F for inactive

molecule | assigned.category
COc1cc(F)ccc1-c1cc(Nc2cc(CS(C)(=N)=O)ccn2)ncc1F (configuration not stated) | T
COc1ccc(C2=NC(=O)NC2c2ccc(OC)cc2)cc1 (configuration not stated) | F
CCCCCCNCCCNc1c2cc(OC)ccc2nc2cccc([N+](=O)[O-])c12 | F
COc1ccc(-c2c(C#N)c(N)nc(N3CCOCC3)c2C#N)cc1 | F
COc1cc(OCc2cccc(-c3ccccc3)c2C)cc(OC)c1CN1CCCCC1C(=O)NCCOCCOCCN (configuration not stated) | F
COc1cc(C2=NN(C(C)=O)C(c3cc(OC)c(OC)c(OC)c3)C2)ccc1O (configuration not stated) | F
CCCCCCCCCc1ccc(OCCOCCOCCOCCOCCOCCOCCOCCOCCO)cc1 | F
N=c1ccc2nc3ccc(N)cc3sc-2c1 | F
Cn1cc(-c2cc(-c3cn(C)c4ccc(Cl)cc34)[nH]n2)c2cc(Cl)ccc21 | F
C=C1C(=O)O[C@H]2[C@H]1CC/C(Cn1cc(-c3ccc(N)cc3)nn1)=C\CC[C@@]1(C)O[C@@H]21 | F
Cc1cc(NCc2cc(Nc3ccnc4cc(Cl)ccc34)ccc2F)nc(N2CCOCC2)n1 | F
CN(C)CCCOc1cccc(NC2=C(Cl)C(=O)C(Nc3cccc(OCCCN(C)C)c3)=C(Cl)C2=O)c1 | F

* * *

tested on: SF-268 CNS; assay: NCI tumour cell line growth inhibition, 48 h; in the data active = GI50 below about 0.43 µM; inactive = the rest
Outcome codes: T (active), F (inactive)

compound | assigned.category
Cc1cn(-c2cccc(NC(=O)c3ccc(C)c(Nc4nccc(-c5cccnc5)n4)c3)c2)cn1 | F
CC(=O)OC(C(=O)[O][Sn]([CH3])([CH3])[CH3])c1ccccc1 (configuration not stated) | F
CCSc1ccc([C@@H]2[C@@H](O)C(=O)N2c2cc(OC)c(OC)c(OC)c2)cc1 | T
C=C(CN1CCc2c([nH]c3ccccc23)C1)c1ccc(C(=O)Nc2ccccc2N)cc1 | F
CCOc1cc(/C=C/C(=O)C(C(=O)/C=C/c2ccc(OC(=O)CNc3nc4ccccc4[nH]3)c(OCC)c2)C(=O)CNc2nc3ccccc3[nH]2)ccc1OC(=O)CNc1nc2ccccc2[nH]1 | F
COc1ccc(-c2nc(-c3nc4cc(Cl)c(F)cc4[nH]3)c3ccccn23)cc1 | F
CC(NC(=O)Cc1ccc(C(F)(F)P(=O)(OCc2ccc([N+](=O)[O-])o2)N(C)CCCCCl)cc1)c1ccc(OCC2CCCCC2)c(C(N)=O)c1 (configuration not stated) | F
COc1cc(OC)c2sc(-c3ccc(-n4cncc4-c4ccc(OC)c(OC)c4)cc3)nc2c1 | F
CC(=O)/C=C/c1ccc(Nc2c3ccccc3nc3occ(Cl)c23)cc1 | F
COc1cc(C2=NN(C(C)=O)C(c3cc(OC)c(OC)c(OC)c3)C2)ccc1O (configuration not stated) | F
Clc1ccc(/C=C/c2ccc3ccccc3n2)cc1 | F
COc1cc(F)ccc1-c1cc(Nc2cc(CS(C)(=N)=O)ccn2)ncc1F (configuration not stated) | T

* * *

test system: SK-MEL-5 melanoma; assay: NCI tumour cell line growth inhibition, 48 h
TGI values, listed per item

compound | TGI
O=C(NN1C(=O)CSC1c1cccc(Cl)c1)C(O)c1ccccc1 (stereo not given) | > 100 µM
COc1ccc2c(O)c(S(=O)(=O)c3ccc(C)cc3)c(=O)oc2c1OC | > 100 µM
O=[N+]([O-])c1ccc(C2ON=C(c3ccccc3)N2C23CC4CC(CC(C4)C2)C3)cc1 (stereo not given) | > 10 µM
COc1cc(-c2ccc(N=Nc3ccc4c(S(=O)(=O)O)cc(S(=O)(=O)O)c(N)c4c3O)c(OC)c2)ccc1N=Nc1ccc2c(S(=O)(=O)O)cc(S(=O)(=O)O)c(N)c2c1O | > 100 µM
COc1c2c(nc3ccccc13)-c1cc(C(CC(=O)OC(C)(C)C)C(=O)OC(C)C)c(CO)c(=O)n1C2 (stereo not given) | > 100 µM

* * *

tested on: HOP-62 NSCLC; experiment: NCI tumour cell line growth inhibition, 48 h; in the data active means GI50 below about 0.43 µM; inactive means the rest
Outcome codes: y = active, n = inactive

molecule | assay.system | assigned.category
ClCc1cccc(Cn2cnc3c(Cl)nc(Cl)nc32)c1 | HOP-62 NSCLC | n
O=C(Nc1cccc2[nH]c(C(F)(F)F)nc12)c1cc(Cl)ccc1Cl | HOP-62 NSCLC | n
O=C(NN1C(=O)CSC1c1cccc(Cl)c1)C(O)c1ccccc1 (stereo unspecified) | HOP-62 NSCLC | n
CC(=O)c1ccc2c(c1)N(CCCN1CCN(CCO)CC1)c1ccccc1S2 | HOP-62 NSCLC | n
COc1cccc(CNc2ncnc3c2ncn3C2OC(CO)C(O)C2O)c1O (stereo unspecified) | HOP-62 NSCLC | y
CCOC(=O)c1sc(-c2ccc(OS(=O)(=O)C[C@]34CCC(CC3=O)C4(C)C)c(C=O)c2)nc1C | HOP-62 NSCLC | n
COc1ccc(-c2cnnn2-c2nonc2-n2cccc2)cc1OC | HOP-62 NSCLC | n
COc1cc(C2=NN(C(C)=O)C(c3cc(OC)c(OC)c(OC)c3)C2)ccc1O (stereo unspecified) | HOP-62 NSCLC | n
O=C(CC1(O)C(=O)Nc2ccc(F)cc21)c1ccc(C(=O)NCC2CCC3(CC2)OOC2(CCCCC2)OO3)cc1 (stereo unspecified) | HOP-62 NSCLC | n
CCCCCCCCCc1ccc(OCCOCCOCCOCCOCCOCCOCCOCCOCCO)cc1 | HOP-62 NSCLC | y
COc1ccc(C2=NC(=O)NC2c2ccc(OC)cc2)cc1 (stereo unspecified) | HOP-62 NSCLC | n

* * *

tested on: HT29 colon; experiment: NCI tumour cell line growth inhibition, 48 h
observation.type: TGI

molecule | observed.measurement
CO[C@H]1/C=C/O[C@@]2(C)Oc3c(C)c(O)c4c(O)c(c(/C=N/N5CCN(C)CC5)c(O)c4c3C2=O)NC(=O)/C(C)=C\C=C\[C@H](C)[C@H](O)[C@@H](C)[C@@H](O)[C@@H](C)[C@H](OC(C)=O)[C@@H]1C | > 100 µM
CCCCCCC(O)CC[C@H]1CCC[C@@H](C)N1 (stereo partly drawn) | > 31.6 µM
O=c1[nH]nc(Cc2ccccc2)n1/N=C/c1ccco1 | > 100 µM
N#Cc1c2ccc([N+](=O)[O-])cc2c(=O)n2c1[nH]c1ccc(C(F)(F)F)cc12 | > 47.4 µM
COC(=O)c1c(CC(Cc2ccc3c(c2)CCCC3)C(=O)O)ccc2c1CCCC2 (stereo not drawn) | > 100 µM
O=c1[nH]c(SCc2cccc([N+](=O)[O-])c2)nc2nc[nH]c12 | > 100 µM
CC(C)(C)C(=O)Oc1ccc(/C=C/C(=O)c2ccc(OC(=O)C(C)(C)C)cc2)cc1 | > 100 µM
COc1cc(/C=N/N=C(\N)NO)cc(OC)c1OC | > 100 µM
